# methodDescription: LD50 in rats
# condition: rat, in vivo, iv, intravenously
assayMetric: LD50 (mg/kg)
Kindly provide the numeric value in mg/kg only, without the unit symbol.

INPUT: Which LD50 value is on record for O=C(O)CN1C(=O)c2cccc3cccc(c23)C1=O ?
OUTPUT: 1220

----------
# methodDescription: LD50 in rats
# condition: rat, in vivo, po, perorally
# Description: Therefore, a good therapeutic index of safety is present.
assayMetric: LD50

INPUT: Which LD50 value is on record for O=C(O)CN1C(=O)c2cccc3cccc(c23)C1=O ?
OUTPUT: > 2500 mg/kg
